system: RXF 393; assay: NCI tumour cell line growth inhibition, 48 h
The source made the active and inactive calls. Cut-off read from the data, not from the text of the source: active = GI50 up to about 1.1 µM and inactive = higher. *1 amine or outer side, *2 acyl side, *3 side chain or, on linkers, in order; H or OH if unused. Where a SMILES comes first, the peptide text is derived from it. Bridges are numbered along the chain shown (N, C = ends). Roman numbers before positions name the chains, in order. [ ]: non-standard residue; d: D form. Actinocin(1to9) = Cc1c2oc3c(C)ccc(C(=O)[*:2])c3nc-2c(C(=O)[*:1])c(N)c1=O; NMeV = CN[CH](C(=O)O)C(C)C; Sar = CNCC(=O)O
Labels: yes (active), no (inactive)

compound	group-label
COC1=C(C(c2cc(OC)c(OC)c(OC)c2)c2cc3c(cc2OC)OCO3)C(=O)OC1 (centres undefined)	no
CCOC(=O)c1nc2ccccc2n(CC)c1=O	no
Cc1ccc(-n2cnc3c(N)nc(N)nc32)cc1	no
O=C1CCCc2ccc3c(c21)CC1(Cc2ccccc2C1)C3	no
CC[P+](C)(C)c1ccccc1	no
CCOc1ccc(NC(=O)C(=O)C2C(=O)Nc3ccccc3[S+]2[O-])cc1 (centres undefined)	no
CNNC(=NS(=O)(=O)c1cc(C#N)c(NNC)cc1S)NNC	no
COc1c(-c2nc3ccc(N4CCN(C)CC4)nc3[nH]2)cc(OC)c2c1nc(CCl)n2C	no
CCOP1(=O)C=C(C)C(=C(Cl)Cl)C(C)=C1 (centres undefined)	no
CN1CCN(Cc2nc3cccc4c3c([n+]2[O-])-c2ccccc2-4)CC1	no
Cc1c2cc[n+](C)cc2c(C)c2c1[nH]c1ccc(Cl)cc12	no
Cn1c(=O)c2c(nc(C(=N)SCC(=O)O)n2C)n(C)c1=O	no
CCCCCCCCCCCCCCCC(=O)N(CCCCCCCCCCC(=O)O)CC(O)C(O)C(OC1OC(CO)C(O)C(O)C1O)C(O)CO (centres undefined)	no
COc1cc2c(cc1O)CC[C@@H]1C2CC[C@@]2(C)C1CC[C@@H]2O (some centres undefined)	no
CC1=C(O)C(=O)C=C2C1=CC=C1[C@@]2(C)CC[C@@]2(C)C3C[C@@H](C)C(=O)[C@@H](O)[C@]3(C)CC[C@]12C (some centres undefined)	no
CC(=O)c1nccc2c1c(C)nc1ccccc12	no
N#Cc1c(N)nc2c(C#N)c(N)cc3c2c1Oc1ccccc1-3	no
CCOC(=O)c1c(-c2ccccc2)c(C(OC(c2ccccc2)c2c(-c3ccccc3)c(C(=O)OCC)n3ccccc23)c2ccccc2)c2ccccn12 (centres undefined)	no
COc1ccc(C(=O)O)c(Cc2cccc3ccccc23)c1	no
CC1(C)CC(=O)C2(CC(CSc3ccccc3)C(CS(=O)(=O)c3ccccc3)C2)C(=O)C1 (centres undefined)	no
COc1cccc(-c2[nH]c3cc4c(cc3c(=O)c2C(=O)O)OCO4)c1	no
CCOC(=O)c1ccc(C(=O)C(C(C)=O)C(=O)OC(C)(C)C)[nH]1 (centres undefined)	no
COc1c(C(=O)CC2c3c(cc4oc(C)cc(=O)c4c3OC)OC(=N)C2c2nc3ccccc3[nH]2)c(O)c(OC)c2occc12 (centres undefined)	no
COc1ccc(CC2NC(=O)C(NC(=O)c3c4nc5c(C(=O)NC6C(=O)NC(Cc7ccc(OC)cc7)C(=O)N7CCCC7C(=O)N(C)CC(=O)N(C)C(C(C)C)C(=O)OC6C)ccc(C)c5oc-4c(C)c(=O)c3N)C(C)OC(=O)C(C(C)C)N(C)C(=O)CN(C)C(=O)C3CCCN3C2=O)cc1 (centres undefined) (I: TY(Me)P[Sar][NMeV] / II: TY(Me)P[Sar][NMeV]; ester I:1-I:C, II:1-II:C; linker I:N-II:N via Actinocin(1to9); configuration not given here)	yes

----------
test system: HCC 2998; experiment: NCI tumour cell line growth inhibition, 48 h
Activity calls are given as the source filed them. Cut-off read from the data, not from the text of the source: active = GI50 up to about 1.1 µM and inactive = higher.
Labels: true (1) for active, false (0) for inactive

compound	group-label
COc1cc(CNNC(N)=S)cc(OC)c1OC	false (0)
Fc1cccc(CSc2ncnc3c2ncn3C2CCCS2)c1 (stereo not given)	false (0)
CC1(C)OC(=O)[C@@](C)([C@H](O)c2ccccc2)O1	false (0)
CC1=C2c3c(C)ccc4ccc(C)c(c34)C2(O)C(C)C1=O (stereo not given)	false (0)
CN(CCN(C)CCN(C)C(=O)Cc1ccc(Cl)c(Cl)c1)CCN1CCCC1	false (0)
CCCCCCNC(=O)C1=C(C)NC(C)=C(C(=O)NCCCCCC)C1	false (0)
Cc1ccc(NC(=O)c2cc3cc(/N=N/c4ccc(Br)cc4)ccc3oc2=O)cc1	false (0)
CC(C)CC(NC(=O)C(CCI)Cc1ccccc1)C(=O)Nc1ccccc1 (stereo not given)	false (0)
CC/C=C\C/C=C\C/C=C\CCCCCCCC(=O)OCC(O)CO (stereo not given)	false (0)
O=S(=O)(F)Cc1ccccc1 [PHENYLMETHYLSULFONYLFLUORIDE]	false (0)
CN(C(=O)Cc1cc(Cl)c(Cl)cc1NC(=O)CCCN)[C@H]1CCCC[C@@H]1N1CCCC1	false (0)
COc1ccccc1-c1nc(O)c2ccccc2n1	false (0)
CC(C)(Br)C(Br)CCC1(C2CO2)CO1 (stereo not given)	false (0)
O=P1(C(O)/C=C/c2ccccc2)N(Cc2ccccc2)[C@@H]2CCCC[C@H]2N1Cc1ccccc1 (stereo not given in full)	false (0)
COc1cc(N(CCC#N)CCC#N)ccc1C(/N=N/c1ccccc1C)=N\NC(=O)c1ccc(C)cc1	false (0)
CC1/C(=N\O)CC(c2ccccc2)N(C)C1c1ccccc1 (stereo not given)	false (0)
O=c1cc(-c2ccccc2)[nH]c2cccc(S)c12	true (1)
O=C1NC(NNc2ccccc2)=N/C1=C\c1ccccc1O	false (0)
N=C(c1ccc2ccccc2c1)c1ccccc1Cc1ccccc1	false (0)
COC(=O)c1ncc2c(=O)[nH]c3ccccc3c2c1C(=O)OC	false (0)
c1ccc(NC[Si]23OCCN(CCO2)CCO3)cc1	false (0)
O=C(O)c1cccc(CN2CCCCC2)c1	false (0)
S=C1/C(=N/c2ccccc2)N(c2ccccc2)/C(=N\c2ccccn2)N1c1ccccc1	false (0)
O=C(NCCOC(=O)CCCCCCCCC(=O)OCCNC(=O)NC(=O)c1cn(Cc2ccccc2)c(=O)[nH]c1=O)NC(=O)c1cn(Cc2ccccc2)c(=O)[nH]c1=O	false (0)
O=C1c2sc(-c3ccc(F)cc3)cc2-n2cccc21	false (0)
Cc1ccc(Nc2n[nH]c(NS(=O)(=O)c3cc(C)c(Cl)cc3S)n2)cc1	false (0)
CC1=C2C3OC(=O)C(C)C3C(O)C[C@@]2(C)C(=O)CC1 (stereo not given in full)	false (0)
O=C1OC[C@@H]2Cc3c([nH]c4ccccc34)[C@@H](c3ccc(O)cc3)N12	false (0)
Nc1c(C(=O)c2ccc(Cl)cc2)[nH]c(Nc2ccc(Cl)cc2)c1C(=S)Nc1ccccc1	false (0)
Cc1ccc2c(c1)CC1(C2)Cc2ccc(C)cc2C1=O (stereo not given)	false (0)
CN(Cc1ccccc1)c1cc(=O)n(C)c(=O)[nH]1	false (0)
Cc1ccc(-n2cnc3c(N)nc(N)nc32)cc1	false (0)
CN(C)CC(/C(Cc1ccccc1)=N\NC(=O)C[n+]1ccccc1)c1ccccc1 (stereo not given)	false (0)
CNC(=S)N/N=C1\C(=O)N(CN2CCOCC2)c2ccc([N+](=O)[O-])cc21	false (0)
Oc1ccccc1C1C=C(c2ccccc2)NC(N2CCCCC2)=C1c1nc2ccccc2[nH]1 (stereo not given)	false (0)
CC(C)OC(=O)C1=C(O)c2ccccc2S(=O)(=O)N1	false (0)
OCCOCCN1CCN(c2nc(N3CCCC3)c3nc(Cl)c(NCc4ccccc4)nc3n2)CC1	false (0)
C[n+]1c2ccccc2c(/C=N\NS(=O)(=O)c2ccc(Cl)cc2)c2ccccc21	false (0)
O=[N+]([O-])/C=C/c1cn(CCCCCCCCn2cc(/C=C/[N+](=O)[O-])c3ccccc32)c2ccccc12	false (0)
CN=S(=O)(C[C@]1(O)CC2OC1C1OC(C)(C)OC21)c1ccccc1 (stereo not given in full)	false (0)

----------
# reported GI50; entries follow
tested on: SR; assay: NCI tumour cell line growth inhibition, 48 h
Calls of active or inactive are those of the source. No stated cut-off is given here; in the data, active = GI50 up to about 1.1 µM and inactive = higher.

compound	GI50
CC(C)N(C(=O)C12C3C4C5C3C1(C#N)C5C42)C(C)C (configuration not stated)	> 100 µM (inactive)
CC(C)(C)c1cc2c(O)c(c1)Cc1cc(C(C#N)(Cc3ccc4ccccc4c3)Cc3ccc4ccccc4c3)cc(c1O)Cc1cc(C(C)(C)C)cc(c1O)Cc1cc(C(C#N)(Cc3ccc4ccccc4c3)Cc3ccc4ccccc4c3)cc(c1O)C2	60.5 µM (inactive)
O=C(O)c1ccccc1-c1ccccc1C(=O)Nc1ccc2c(c1)Cc1cc(F)ccc1-2	18 µM (inactive)
CC[C@@H]1CN(C)[C@H]2Cc3c([nH]c4ccccc34)C(=O)C[C@H]1C2C(=O)OC (some centres not stated)	> 100 µM (inactive)
O=C1/C(=C/c2ccccc2)CCC/C1=C\c1ccccc1 [2,6-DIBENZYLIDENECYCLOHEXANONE]	9.71 µM (inactive)
C#CCOC(=O)C(=[N+]=[N-])C(=O)CC(C)C	> 10 µM (inactive)
CC(C)(/N=N/C(C)(C)C(=O)NCCO)C(=O)NCCO	> 100 µM (inactive)
Cc1cccc(C)c1NC(=O)C(=O)C1C(=O)N(c2ccccc2)N=C1N (configuration not stated)	> 100 µM (inactive)
COc1ccc(NC(=O)C(=O)NO)c(OC)c1	0.239 µM (active)
N#Cc1c(Nc2ccc(F)cc2)[n+]([O-])c2ccc(Cl)cc2[n+]1[O-]	1.57 µM (inactive)
Cc1ccc(S(=O)(=O)NN=C2CCCCCCCCCCC2)cc1	> 100 µM (inactive)
CC(=O)c1nccc2c1c(C)nc1ccccc12	26.4 µM (inactive)
CN(COC(=O)C(C)(C)C)c1nc(N(C)COC(=O)C(C)(C)C)nc(N(C)COC(=O)C(C)(C)C)n1	29.1 µM (inactive)
Cc1ccc(Nc2nnc(-c3ccc4c(c3)OCO4)o2)c(C)c1	31.1 µM (inactive)
CN(C)C(=S)N=C(Nc1ccccc1)Nc1ccccc1	> 100 µM (inactive)
CC12CCC(O)CC1CCC1C2CCC2(C)C(C(=O)CC(O)C(F)(F)F)CCC12 (configuration not stated)	0.289 µM (active)
O=c1c([Se]c2coc3ccccc3c2=O)coc2ccccc12	4.72 µM (inactive)
Clc1ccc(C2=CCN3CC=C(c4ccc(Cl)cc4)C23)cc1	6.7 µM (inactive)
O=C1c2ccccc2C(=O)c2cc(/N=N/c3c(O)ccc4ccccc34)ccc21	> 100 µM (inactive)
CO/C=C(/C(=O)OC)c1ccccc1[C@@H]1CC1c1cccc(F)c1 (some centres not stated)	21.2 µM (inactive)
COc1ccc2c(c1)CC1Cc3cc(OC)c(OC)cc3CN1CC2 (configuration not stated)	17.7 µM (inactive)
Cc1cc(O)nc(NN2C(Cl)C(=O)C2c2cccc([N+](=O)[O-])c2)n1 (configuration not stated)	16.9 µM (inactive)
